# testSystem: T1, O9-bP
# T1 chain: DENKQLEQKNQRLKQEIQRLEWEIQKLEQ
# protocolSummary: two-hybrid library CCNG1;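 note: natural log of median RNA to DNA barcode read ratio; higher means stronger binding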
Labelling field: enter 1.0 if recorded interaction score is less than -1. Enter 0.0 if it equals or exceeds that cut-off.

binder | qualitativeLabel
DKIKQLKQKNQRLKQKIQRLKWENQKLEQ [O7-bP] | 1.0
DKNQQLKQEIQELEQKIQELKWENQELKQ [4H3628-bN] | 0.0
DEIKQLEQKIQRLKQKNQRLKWKNQKLKQ [O12-bP] | 0.0
DKNKQLKQKIQRLKQKNQRLKWEIQKLEQ [O13-bP] | 1.0
DKNKQLKQKIQRLKQENQRLEWKIQKLKQ [O6-bP] | 0.0
DENKQLEQEIQRLEQKNQRLKWEIQKLEQ [O5-bP] | 1.0
DEIKQLEQENQRLEQEIQRLEWKNQKLKQ [O8-bP] | 0.0
